Cited source for all entries: patent US9738655B2

- assay_target: purified human Factor XIa (Homo sapiens (Human), UniProt P03951)
- Sequence (P03951 388-625): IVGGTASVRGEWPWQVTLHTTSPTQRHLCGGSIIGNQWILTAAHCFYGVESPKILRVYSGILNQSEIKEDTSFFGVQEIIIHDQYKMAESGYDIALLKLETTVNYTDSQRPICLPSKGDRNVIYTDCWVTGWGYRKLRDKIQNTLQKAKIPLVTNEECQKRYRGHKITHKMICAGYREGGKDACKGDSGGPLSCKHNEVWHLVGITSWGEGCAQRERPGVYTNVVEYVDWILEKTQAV
- Sequence (P03951 19-387 partner): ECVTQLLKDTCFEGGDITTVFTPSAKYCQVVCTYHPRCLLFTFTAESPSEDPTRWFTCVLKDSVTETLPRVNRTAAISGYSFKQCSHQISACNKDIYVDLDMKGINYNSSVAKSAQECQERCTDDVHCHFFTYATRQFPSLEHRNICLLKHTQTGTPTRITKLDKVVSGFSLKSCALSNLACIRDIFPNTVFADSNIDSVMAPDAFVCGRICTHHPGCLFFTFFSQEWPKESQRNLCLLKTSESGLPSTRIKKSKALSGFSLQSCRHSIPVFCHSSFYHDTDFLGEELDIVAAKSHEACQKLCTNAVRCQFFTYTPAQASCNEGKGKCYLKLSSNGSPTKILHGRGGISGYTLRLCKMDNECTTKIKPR
- run_description: Factor XIa enzyme inhibition assay (chromogenic substrate S-2366)
- condition_parameters: read-out: Factor XIa Ki; measured at 25° C.
pKi: −log10 of the molar value. Counter-ions that a name gives are not always drawn.
The following molecules are shown together with reported pKi values.
readout_label: pKi

[
  {
    "molecule": "CN1CCN(c2cccc3c2CCN(C(=O)c2cn(-c4cccc(Cl)c4F)nn2)[C@@H]3C(=O)Nc2ccc(C(=O)O)cc2)CC1=O [Example 287, TFA salt]",
    "relation_qualifier": ">",
    "endpoint_result": 8.30
  },
  {
    "molecule": "O=C(Nc1ccc(-c2ncc[nH]2)cc1)[C@H]1c2cccc(-c3cncnc3)c2CCN1C(=O)[C@H]1CC(c2cccc(Cl)c2F)=NO1 [Example 135, TFA salt]",
    "relation_qualifier": ">",
    "endpoint_result": 8.30
  },
  {
    "molecule": "COC1CCN(c2cccc3c2CCN(C(=O)c2cnn(-c4cccnc4)c2)C3C(=O)Nc2ccc(C(=O)O)cc2)CC1 (stereo not drawn) [Example 330, TFA salt]",
    "relation_qualifier": "=",
    "endpoint_result": 5.45
  },
  {
    "molecule": "O=C(Nc1cccc2c1CCN(C(=O)c1cn(-c3cccc(Cl)c3F)nn1)C2C(=O)Nc1ccc(C(=O)O)cc1)NC1CCCC1 (stereo not drawn) [Example 193]",
    "relation_qualifier": "=",
    "endpoint_result": 7.70
  },
  {
    "molecule": "Cc1nn(C)c2c1C(C(=O)Nc1ccc(C(=O)O)cc1)N(C(=O)c1cn(-c3cccc(Cl)c3F)nn1)CC2 (stereo not drawn) [Example 221]",
    "relation_qualifier": "=",
    "endpoint_result": 6.75
  },
  {
    "molecule": "CNC(=O)c1ccc(-c2cccc3c2CCN(C(=O)c2cn(-c4cccc(Cl)c4F)nn2)[C@@H]3C(=O)Nc2ccc(C(=O)O)cc2)cn1 [Example 44, TFA salt]",
    "relation_qualifier": ">",
    "endpoint_result": 8.30
  },
  {
    "molecule": "CN(C)C1CCN(c2cccc3c2CCN(C(=O)c2cnn(-c4cccc(Cl)c4F)c2)C3C(=O)Nc2ccc(OC(F)F)cc2)CC1 (stereo not drawn) [Example 96, TFA salt]",
    "relation_qualifier": "=",
    "endpoint_result": 7.69
  },
  {
    "molecule": "O=C(O)c1ccc(NC(=O)[C@H]2c3cccc(N4CCOCC4)c3CCN2C(=O)c2cnn(-c3cccc(Cl)c3F)c2)cc1 [Example 88, TFA salt]",
    "relation_qualifier": "=",
    "endpoint_result": 6.41
  },
  {
    "molecule": "Cn1cc2ccc(-c3cccc4c3CCN(C(=O)c3cn(-c5cccc(Cl)c5F)nn3)C4C(=O)Nc3ccc(C(=O)O)cc3)cc2n1 (stereo not drawn) [Example 162]",
    "relation_qualifier": ">",
    "endpoint_result": 8.30
  },
  {
    "molecule": "CN(C)C(=O)C1CCN(c2cccc3c2CCN(C(=O)c2cnn(-c4cccc(Cl)c4F)c2N)C3C(=O)Nc2ccc(C(=O)O)cc2)CC1 (stereo not drawn) [Example 317, TFA salt]",
    "relation_qualifier": ">",
    "endpoint_result": 8.30
  },
  {
    "molecule": "CNC(=O)c1ccc(-c2cccc3c2CCN(C(=O)c2cnn(-c4cccc(Cl)c4F)c2N)C3C(=O)Nc2ccc(C(=O)O)cc2)cn1 (stereo not drawn) [Example 47, TFA salt]",
    "relation_qualifier": ">",
    "endpoint_result": 8.30
  },
  {
    "molecule": "CC(C)c1nnc2n1CCN(C(=O)c1cn(-c3cccc(Cl)c3F)nn1)C2C(=O)Nc1ccc(C(=O)O)cc1 (stereo not drawn) [Example 223]",
    "relation_qualifier": "=",
    "endpoint_result": 5.58
  }
]
